Tested on: L929 cells
Assay: L929 cell necroptosis assay (TNFa + zVAD, CellTiter-Glo)
Assay type: cell-based, murine
Settings: Mus musculus, L929, read-out: L929-CTG-recovery, L929, TNFa + zVAD (IC50), L929 cells, TNFa + zVAD
Observation Type: IC50
Please format your answer as a value with the unit trailing.

Entry CN1C(=O)[C@@H](NC(=O)c2nnc(Cc3ccccc3)o2)COc2ccc(N3CC4(CCOCC4)C3)cc21 [Compound I-236] needs its IC50 filled in; supply it. 0.258 µM

Entry CN1C(=O)[C@@H](NC(=O)c2cc(Oc3ccccc3)ccn2)COc2ccc(CCC(N)=O)cc21 [II-24] needs its IC50 filled in; supply it. 7.91 µM

Entry CN1C(=O)[C@@H](NC(=O)c2cc(Oc3ccccc3)ccn2)COc2ccc(C#CC3(O)CN(C(=O)C(F)(F)F)C3)cc21 [Compound I-151] needs its IC50 filled in; supply it. 1.08 µM

Entry COC(C)(C)C#Cc1ccc2c(c1)N(C)C(=O)[C@@H](NC(=O)c1cc(Oc3ccccc3)ccn1)CO2 [II-32] needs its IC50 filled in; supply it. 0.0574 µM

Entry CN1C(=O)[C@@H](NC(=O)c2cc(Oc3ccccc3)ccn2)COc2ccc(C#CC(C)(C)C)cc21 [II-25] needs its IC50 filled in; supply it. 0.202 µM

Entry CN1C(=O)[C@@H](NC(=O)c2cc(-c3ccccc3)ccn2)COc2ccc(C#CC(C)(C)O)cc21 [II-20] needs its IC50 filled in; supply it. 14.6 µM

Entry COc1ccc(-c2ccnc(C(=O)N[C@H]3COc4ccc(C#CC(C)(C)O)cc4N(C)C3=O)c2)cc1 [II-22] needs its IC50 filled in; supply it. 56 µM

Entry CN1C(=O)[C@@H](NC(=O)c2n[nH]c(Cc3ccccc3)n2)COc2ccc(CCC(=O)Nc3ccc4cccnc4c3)cc21 [Compound I-12] needs its IC50 filled in; supply it. 42 µM

----------
Kindly state IC50 for each of the entries shown.
Test system: L929 cells
Test: L929 cell necroptosis assay (TNFa + zVAD, CellTiter-Glo)
Assay type: cell-based, murine
Conditions: Mus musculus, L929, L929 cells, TNFa + zVAD; read-out: L929-CTG-recovery, L929, TNFa + zVAD (IC50)
Give a bare numeral; the unit nM is implied.

Entry CN1C(=O)[C@@H](NC(=O)c2cc(Oc3cccc(F)c3)ccn2)COc2ccc(C#CC(C)(C)C)cc21 [Compound I-106] needs its IC50 filled in; supply it. 481

Entry C=C(C)C#Cc1ccc2c(c1)N(C)C(=O)[C@@H](NC(=O)c1cc(Oc3ccccc3)ccn1)CO2 [Compound I-99] needs its IC50 filled in; supply it. 116

Entry CN1C(=O)[C@@H](NC(=O)c2cc(Oc3ccc(F)cc3)ccn2)COc2ccc(C#CC(C)(C)O)cc21 [Compound I-100] needs its IC50 filled in; supply it. 263

Entry CN1C(=O)[C@@H](NC(=O)c2n[nH]c(Cc3ccccc3)n2)COc2ccc(C#C[C@@]3(O)CO[C@@H]4[C@@H](OC(=O)c5ccccc5)CO[C@@H]43)cc21 [Compound I-74] needs its IC50 filled in; supply it. 0.2

Entry CN1C(=O)[C@@H](NC(=O)c2ncn(Cc3ccccc3)n2)COc2ccc(CCC(N)=O)cc21 [Compound I-32] needs its IC50 filled in; supply it. 17700

Entry CN1C(=O)[C@@H](NC(=O)c2n[nH]c(Cc3c(Cl)cccc3Cl)n2)COc2ccc(C#CC(C)(C)O)cc21 [Compound I-65] needs its IC50 filled in; supply it. 41.5

Entry CN1C(=O)[C@@H](NC(=O)c2cc(Cc3ccc(F)cc3)ccn2)COc2ccc(C#CC3(O)COC3)cc21 [Compound I-126] needs its IC50 filled in; supply it. 55.3

Entry CCN1C(=O)[C@@H](NC(=O)c2n[nH]c(Cc3cccc(F)c3)n2)COc2ccc(C#CC(C)(C)O)cc21 [Compound I-92] needs its IC50 filled in; supply it. 430

Entry CCOC(=O)CCc1ccc2c(c1)N(C)C(=O)[C@@H](NC(=O)c1ncn(Cc3ccccc3F)n1)CO2 [Compound I-5] needs its IC50 filled in; supply it. 18.8

Entry CN1C(=O)[C@@H](NC(=O)c2n[nH]c(Cc3ccccc3)n2)COc2ccc(/C=C/C(=O)N3CCCC3)cc21 [Compound I-22] needs its IC50 filled in; supply it. 3380

Entry CC(C)Cn1cnc(C(=O)N[C@H]2COc3ccc(C#CC(C)(C)O)cc3N(C)C2=O)n1 [Compound I-85] needs its IC50 filled in; supply it. 0.6

Entry CN1C(=O)[C@@H](NC(=O)c2cc(Oc3ccc(F)cc3)ccn2)COc2ccc(C#CC3(O)COC3)cc21 [Compound I-111] needs its IC50 filled in; supply it. 99.9

Entry CN1C(=O)[C@@H](NC(=O)c2cc(Oc3ccccc3)ccn2)COc2ccc(C#CC3(F)COC3)cc21 [Compound I-129] needs its IC50 filled in; supply it. 24.1

Entry Cc1ccccc1Cn1cnc(C(=O)N[C@H]2COc3ccc(C#CC(C)(C)O)cc3N(C)C2=O)n1 [Compound I-82] needs its IC50 filled in; supply it. 0.3

Where do the numbers come from? From patent US11407736B2.
